// provenance: the supplement of paper PMC10567573

B1: SPSB1 (parent)
chain: DMRDPTYRPLKQELQGLDYCKPTR

Variants of: B1
Test: protein stability index of a GFP-peptide fusion (GPS, HEK-293T) (PSI 1-6); higher = more stable;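 note: lentivirally expressed fusions sorted by FACS into six bins by GFP to DsRed ratio, PSI derived from sequencing read proportions per bin multiplied by bin number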
Measurement Setup: c terminus: a fixed tail appended

Sequence Record: DMIDPTYRPLKQELQGLDYCKPTR [R3I]
protein stability index: 2.96

Sequence Record: DMRDPTYRKLKQELQGLDYCKPTR [P9K]
protein stability index: 2.94

Sequence Record: DMRDPTYRPLKQELQGLYYCKPTR [D18Y]
protein stability index: 2.99

Sequence Record: DMRDPTYRPLKQELQGLLYCKPTR [D18L]
protein stability index: 2.95

Sequence Record: DVRDPTYRPLKQELQGLDYCKPTR [M2V]
protein stability index: 3.02

Sequence Record: DMRDPTYRPLKQELQGLDYFKPTR [C20F]
protein stability index: 3.31

Sequence Record: DMRDPTYRGLKQELQGLDYCKPTR [P9G]
protein stability index: 3.51

Sequence Record: DMRDPTYRPKKQELQGLDYCKPTR [L10K]
protein stability index: 3.22

Sequence Record: DMRDETYRPLKQELQGLDYCKPTR [P5E]
protein stability index: 3.65

Sequence Record: DMRDPTYRPLKSELQGLDYCKPTR [Q12S]
protein stability index: 3.25

Sequence Record: DMRGPTYRPLKQELQGLDYCKPTR [D4G]
protein stability index: 2.97

Sequence Record: DMRDPTYRPLKQESQGLDYCKPTR [L14S]
protein stability index: 4.24

Sequence Record: DMRDPTGRPLKQELQGLDYCKPTR [Y7G]
protein stability index: 2.64

Sequence Record: DMRDPTYRPLKQEQQGLDYCKPTR [L14Q]
protein stability index: 4.29

Sequence Record: DMRDPTIRPLKQELQGLDYCKPTR [Y7I]
protein stability index: 2.54

Sequence Record: DMRDPTYRPLKQEHQGLDYCKPTR [L14H]
protein stability index: 4.03

Sequence Record: DQRDPTYRPLKQELQGLDYCKPTR [M2Q]
protein stability index: 3.26

Sequence Record: DMRDPTYRPLKQELYGLDYCKPTR [Q15Y]
protein stability index: 3.4

Sequence Record: DMRDPTQRPLKQELQGLDYCKPTR [Y7Q]
protein stability index: 4.24

Sequence Record: DMRDPTYRPLKQELQGLDMCKPTR [Y19M]
protein stability index: 4

Sequence Record: DMRDPTYRPLKQELQGHDYCKPTR [L17H]
protein stability index: 4.39

Sequence Record: DMRDPTYRPLQQELQGLDYCKPTR [K11Q]
protein stability index: 3.62
